src = paper PMC6150240

Value Kind: melting point

A selection of reference data follows.
# Record Smiles, melting point
data = [
    ("CCOc1nc(-c2ccc(C)cc2)cc(-c2cn(-c3ccccc3)nc2-c2cc3ccccc3o2)c1C#N", "202 to 204 °C"),
    ("COc1nc(-c2ccccn2)cc(-c2cn(-c3ccccc3)nc2-c2cc3ccccc3o2)c1C#N", "275 to 277 °C"),
    ("CCOc1nc(-c2ccc3c(c2)CCCC3)cc(-c2cn(-c3ccccc3)nc2-c2cc3ccccc3o2)c1C#N", "213 to 215 °C"),
    ("COc1ccc(-c2cc(-c3cn(-c4ccccc4)nc3-c3cc4ccccc4o3)c(C#N)c(OC)n2)cc1", "256 to 258 °C"),
]

Please examine the following record next.
I'd like to know its melting point. The compound in question is COc1nc(-c2ccc(C)cc2)cc(-c2cn(-c3ccccc3)nc2-c2cc3ccccc3o2)c1C#N
258 to 260 °C

###

# Test system: isolated thoracic aortic rings of male Wistar rats
# Experimental Details: Vasodilation activity screening: isolated thoracic aortic rings pre-contracted with norepinephrine hydrochloride
# Stated Conditions: Rattus norvegicus, norepinephrine hydrochloride 10^−6 M, three replicates, read-out: Potency (IC50), concentration necessary for 50% reduction of maximal norepinephrine hydrochloride induced contracture
Value Kind: pIC50
Please treat pIC50 as minus the base-10 logarithm of the molar concentration.

The following compounds have reported results that may help.
# Compound, pIC50
data = [
    ("COc1nc(-c2ccccn2)cc(-c2cn(-c3ccccc3)nc2-c2cc3ccccc3o2)c1C#N [Compound 4u]", 3.48),
    ("COc1nc(-c2ccco2)cc(-c2cn(-c3ccccc3)nc2-c2cc3ccccc3o2)c1C#N [Compound 4q]", 3.49),
    ("COc1nc(-c2ccc(Br)cc2)cc(-c2cn(-c3ccccc3)nc2-c2cc3ccccc3o2)c1C#N [Compound 4e]", 3.60),
    ("CCOc1nc(-c2ccc(F)cc2)cc(-c2cn(-c3ccccc3)nc2-c2cc3ccccc3o2)c1C#N [Compound 4h]", 3.48),
]

GET /values?readout=pIC50&item= CCOc1nc(-c2ccccc2)cc(-c2cn(-c3ccccc3)nc2-c2cc3ccccc3o2)c1C#N [Compound 4b]
3.46

Look up pIC50: COc1nc(-c2ccc3c(c2)CCCC3)cc(-c2cn(-c3ccccc3)nc2-c2cc3ccccc3o2)c1C#N [Compound 4m]
3.54

###

# Tested on: isolated thoracic aortic rings of male Wistar rats
# Experimental Details: Vasodilation activity screening: isolated thoracic aortic rings pre-contracted with norepinephrine hydrochloride
# Stated Conditions: Rattus norvegicus, norepinephrine hydrochloride 10^−6 M, three replicates, read-out: Potency (IC50), concentration necessary for 50% reduction of maximal norepinephrine hydrochloride induced contracture
Value Kind: IC50 (µM)
Reply with just the number (in µM).

Before answering, review these 5 worked examples.
# Record Smiles, Endpoint Unit, IC50
data = [
    ("COc1nc(-c2ccc[nH]2)cc(-c2cn(-c3ccccc3)nc2-c2cc3ccccc3o2)c1C#N", "µM", 356),
    ("COc1nc(-c2ccc(C)cc2)cc(-c2cn(-c3ccccc3)nc2-c2cc3ccccc3o2)c1C#N", "µM", 330),
    ("CCOc1nc(-c2cccs2)cc(-c2cn(-c3ccccc3)nc2-c2cc3ccccc3o2)c1C#N", "µM", 298),
    ("COc1nc(-c2ccc(Cl)cc2)cc(-c2cn(-c3ccccc3)nc2-c2cc3ccccc3o2)c1C#N", "µM", 295),
    ("COc1nc(-c2ccc(F)cc2)cc(-c2cn(-c3ccccc3)nc2-c2cc3ccccc3o2)c1C#N", "µM", 275),
]

Please look up its IC50: CCOc1nc(-c2ccc(C)cc2)cc(-c2cn(-c3ccccc3)nc2-c2cc3ccccc3o2)c1C#N
452

Find the recorded IC50 belonging to CCOc1nc(-c2ccco2)cc(-c2cn(-c3ccccc3)nc2-c2cc3ccccc3o2)c1C#N and report it.
254

Given the entry CCOc1nc(-c2ccc3c(c2)CCCC3)cc(-c2cn(-c3ccccc3)nc2-c2cc3ccccc3o2)c1C#N , report its measured IC50.
337

Form field: reported IC50 of COc1nc(-c2cccs2)cc(-c2cn(-c3ccccc3)nc2-c2cc3ccccc3o2)c1C#N
268
